system: L1210 leukemia ip in BDF1 mice, survival T/C; assay: NCI In Vivo Anticancer Drug Screen. Data for tumor model L1210 Leukemia (intraperitoneal) in B6D2F1 (BDF1) mice; settings: endpoint: mean survival time; dose: 100.0 mg/kg/injection; schedule: Q01DX001 (ip); vehicle: other; higher = longer survival
Toxic doses and inconclusive results are not listed.
measure: T/C

>>> result("CCCNC(=O)Oc1c(C)cccc1C")
"95 % of control"
>>> result("O=Cc1cc([N+](=O)[O-])ccc1O")
"101 % of control"

Query for L1210 leukemia ip in BDF1 mice, survival T/C: what T/C does the record show for COC(=O)C(Cc1c[nH]c2ccccc12)N(C)C (centres undefined) ?
101 % of control

Query for L1210 leukemia ip in BDF1 mice, survival T/C: what T/C does the record show for CN(C)C(=O)NC1CCc2ccccc21 (centres undefined) ?
95 % of control

Query for L1210 leukemia ip in BDF1 mice, survival T/C: what T/C does the record show for CCOC(=O)C(O)(C(=O)OCC)c1ccccc1 ?
97 % of control

Query for L1210 leukemia ip in BDF1 mice, survival T/C: what T/C does the record show for CCOC(=O)C1C2OC(=O)C(C(=O)C2N=Nc2ccc(-c3ccc(N=NC4C(=O)C5C(=O)OC4C(C(=O)OCC)C5C4CC=CCC4)cc3)cc2)C1C1CC=CCC1 (centres undefined) ?
86 % of control

* * *

Overview of reported T/C across a group of compounds:
test system: L1210 leukemia ip in BDF1 mice, survival T/C; experiment: NCI In Vivo Anticancer Drug Screen. Data for tumor model L1210 Leukemia (intraperitoneal) in B6D2F1 (BDF1) mice; settings: endpoint: mean survival time; dose: 5.0 mg/kg/injection; schedule: Q01DX001 (ip); vehicle: saline; higher = longer survival
Inconclusive results and toxic doses are left out.

>>> result("C/C(=N/N)c1ccc(Br)cc1")
"94 % of control"
>>> result("O=[N+]([O-])c1cccc(S(=O)(=O)OCn2ncc3ccc([N+](=O)[O-])cc32)c1")
"94 % of control"
>>> result("CCOC(=O)c1cc(N(CCOS(C)(=O)=O)CCOS(C)(=O)=O)ccc1N")
"116 % of control"

Attention now turns to another entry.
Item Oc1ccc([S+](c2ccc(O)cc2)c2ccc(O)cc2)cc1 has what recorded T/C?
96 % of control

* * *

system: L1210 leukemia ip in BDF1 mice, survival T/C; assay: NCI In Vivo Anticancer Drug Screen. Data for tumor model L1210 Leukemia (intraperitoneal) in B6D2F1 (BDF1) mice; conditions: endpoint: mean survival time; dose: 400.0 mg/kg/injection; schedule: Q01DX001 (ip); vehicle: saline with Tween-80; higher = longer survival
Inconclusive results and toxic doses are left out.
measure: T/C

Illustrative cases are given below, each with its answer.
>>> result("CCCCCCCCCCCCC1CC2CCCCC2C2CCCCC12 (centres undefined)")
"89 % of control"
>>> result("CC1(OC(=O)c2ccc([N+](=O)[O-])cc2)CC2CCC1C2 (centres undefined)")
"104 % of control"
>>> result("Cc1cc(NC(=O)COc2ccc([N+](=O)[O-])cc2Cl)ccc1S(=O)(=O)F")
"93 % of control"
>>> result("c1ccc(SCC2C3CSC4C3CC2C4Sc2ccccc2)cc1 (centres undefined)")
"94 % of control"
>>> result("CCOc1ccc(NC(=O)Oc2ccc(C(=O)OC)cc2)cc1")
"91 % of control"
>>> result("O=C(O)CCCCCCC(=O)c1ccccc1")
"98 % of control"

Item COc1ccc(C)cc1NC(=S)NC(=O)/C=C/c1ccccc1 has what recorded T/C?
90 % of control

Item C=CCc1cc(C)cc([N+](=O)[O-])c1OBr has what recorded T/C?
93 % of control

Item CN(C)c1nnc(-c2ccc(Cl)cc2)nn1 has what recorded T/C?
88 % of control

Item CCOc1cc(S(N)(=O)=O)ccc1Cl has what recorded T/C?
96 % of control

Item O=C(NNc1ccccc1OCc1ccccc1)C(F)(F)F has what recorded T/C?
95 % of control

Item Cc1cc(C)c2c(C#N)cn(-c3ccc([N+](=O)[O-])cc3)c2n1 has what recorded T/C?
95 % of control

Item COc1ccc(C2NC(=O)CCC2N)cc1OC (centres undefined) has what recorded T/C?
95 % of control

Item CCCCCCCCCCCCCC=C(C)C has what recorded T/C?
87 % of control

Item C=C(C)CNC(=O)Oc1cccc(NC(=O)OC)c1 has what recorded T/C?
92 % of control

Item CC1(C)C2CCC(O)C1C2 (centres undefined) has what recorded T/C?
90 % of control

Item O=C(O)COc1ccc(Cl)cc1Cc1ccccc1 has what recorded T/C?
117 % of control

Item COc1cc(/C=N/N=C(\N)N[N+](=O)[O-])cc(OC)c1OC has what recorded T/C?
96 % of control

Item COc1ccc(Cl)cc1NC(=O)Oc1ccccc1C(C)C has what recorded T/C?
87 % of control

* * *

test system: L1210 leukemia ip in BDF1 mice, survival T/C; assay: NCI In Vivo Anticancer Drug Screen. Data for tumor model L1210 Leukemia (intraperitoneal) in B6D2F1 (BDF1) mice; settings: endpoint: mean survival time; dose: 200.0 mg/kg/injection; schedule: Q04DX002 (ip); vehicle: other; higher = longer survival
Toxic doses and inconclusive results are not listed.
measure: T/C

Illustrative cases are given below, each with its answer.
>>> result("OCC1=CCc2ccccc21")
"93 % of control"
>>> result("CC12CC(O)C(C=C1c1ccccc1)C2(C)C (stereo not given)")
"93 % of control"
>>> result("CCCCCNS(=O)(=O)CCCC")
"96 % of control"

Query for L1210 leukemia ip in BDF1 mice, survival T/C: what T/C does the record show for O=C(O)c1cc(Cl)ccc1O ?
103 % of control

Query for L1210 leukemia ip in BDF1 mice, survival T/C: what T/C does the record show for Cc1cc(Cc2cc(C)c(O)c(C(C)(C)C)c2)cc(C(C)(C)C)c1O ?
90 % of control

* * *

system: L1210 leukemia ip in BDF1 mice, survival T/C; experiment: NCI In Vivo Anticancer Drug Screen. Data for tumor model L1210 Leukemia (intraperitoneal) in B6D2F1 (BDF1) mice; details: endpoint: mean survival time; dose: 75.0 mg/kg/injection; schedule: Q04DX003 (ip); vehicle: saline; higher = longer survival
Toxic doses and inconclusive results are not listed.
measure: T/C

>>> result("Cc1ccc(CC(O)(CC(O)(c2ccccc2)c2ccccc2)c2ccccc2)cc1C (centres undefined)")
"94 % of control"
>>> result("FC(F)(F)c1ccc(-c2ccc(OCCN3CCCC3)cc2)cc1")
"102 % of control"
>>> result("C[n+]1ccccc1/C=N/O")
"91 % of control"

Attention now turns to another entry.
Item Nc1ccc(Nc2ccccc2)c(N)c1 has what recorded T/C?
103 % of control

* * *

test system: L1210 leukemia ip in BDF1 mice, survival T/C; assay: NCI In Vivo Anticancer Drug Screen. Data for tumor model L1210 Leukemia (intraperitoneal) in B6D2F1 (BDF1) mice; conditions: endpoint: mean survival time; dose: 100.0 mg/kg/injection; schedule: Q04DX002 (ip); vehicle: saline; higher = longer survival
Toxic doses and inconclusive results are not listed.
measure: T/C

Illustrative cases are given below, each with its answer.
>>> result("O=C1OCC/C1=C\\C1CO1 (stereo unspecified)")
"97 % of control"
>>> result("N#CC1C2CCC(C2)C1CCCNCCCC1C2CCC(C2)C1C#N (stereo unspecified)")
"97 % of control"
>>> result("CN(C)CC(Oc1ccccc1)c1ccccc1 (stereo unspecified)")
"98 % of control"

Item O=C(CCC(=O)NO)NO has what recorded T/C?
110 % of control

Item NC(=O)c1cncc(C(N)=O)c1 has what recorded T/C?
103 % of control

Item O=S(=O)(O)SCC1=NCCN1 has what recorded T/C?
98 % of control

* * *

system: L1210 leukemia ip in BDF1 mice, survival T/C; test: NCI In Vivo Anticancer Drug Screen. Data for tumor model L1210 Leukemia (intraperitoneal) in B6D2F1 (BDF1) mice; conditions: endpoint: mean survival time; dose: 200.0 mg/kg/injection; schedule: Q01DX001 (ip); vehicle: Klucel (hydroxypropylcellulose) (HPC); higher = longer survival
Toxic doses and inconclusive results are not listed.
measure: T/C

>>> result("Nc1nc2c(ncn2-c2ccc(OCCCOc3ccc(S(=O)(=O)F)cc3)cc2)c(=O)[nH]1")
"91 % of control"
>>> result("COC(=O)c1cc(Cl)ccc1OCC(=O)O")
"93 % of control"
>>> result("COc1ccc2c(c1OC)CCN1C3=C(CC(OC(=O)c4ccccc4)CC3)C(=O)CC21 (stereo not drawn)")
"94 % of control"
>>> result("CN(C)c1c(Cl)cc([N+](=O)[O-])cc1Cl")
"95 % of control"
>>> result("O=C(Nc1ccnc(=O)[nH]1)c1ccccc1")
"100 % of control"
>>> result("CC(=O)Nc1ccc(CCCCc2c(C)nc(NC(C)=O)[nH]c2=O)cc1")
"89 % of control"
>>> result("Nc1nc2ncc(CNc3ccc(C(=O)NC(CCC(=O)O)C(=O)O)cc3)nc2c(=O)n1N (stereo not drawn)")
"101 % of control"
>>> result("CC1N=C(c2ccc(N)cc2)OC1C (stereo not drawn)")
"98 % of control"
>>> result("O=C(/C=C/c1ccccc1)c1ccccc1")
"99 % of control"
>>> result("O=S(=O)(/N=c1/ccc(NS(=O)(=O)c2ccccc2)cn1O)c1ccccc1")
"98 % of control"

Item O=C(OCc1ccccc1CN1CCCC1)c1cccc(Br)c1 has what recorded T/C?
98 % of control

Item c1ccc(-c2cc(-c3ccccc3)c(-c3ccccc3)o2)cc1 has what recorded T/C?
92 % of control

Item Cc1ccc([N+](=O)[O-])cc1NC(=O)N1CCCCC1C (stereo not drawn) has what recorded T/C?
111 % of control

Item CC(=O)Nc1nc(C(=O)O)c(CCCCc2ccccc2)c(=O)[nH]1 has what recorded T/C?
98 % of control

Item CCCC(C#N)(c1ccccc1)c1ccccc1 has what recorded T/C?
92 % of control

Item CC(C)Cc1c(N)nc(=O)[nH]c1C(=O)O has what recorded T/C?
100 % of control

Item CC(=O)Nc1cccc(Cc2ccccc2)c1 has what recorded T/C?
97 % of control

Item O=C1C=C(c2ccccc2)c2cccc3cccc1c23 has what recorded T/C?
92 % of control

Item Cc1ccc(S(=O)(=O)NNC(=O)C2(C)CC2(C)C(=O)O)cc1 (stereo not drawn) has what recorded T/C?
93 % of control

Item O=C(Nc1ccc([N+](=O)[O-])cn1)Nc1ccccc1F has what recorded T/C?
89 % of control

Item O=C(NC(CCl)c1ccccc1)c1ccc([N+](=O)[O-])cc1 (stereo not drawn) has what recorded T/C?
104 % of control

Item CN1CN(c2ccccc2)C2(CCN(CCC3Oc4ccccc4O3)CC2)C1=O has what recorded T/C?
98 % of control

Item O=C(O)c1ccc(CC2CCCC2)cc1 has what recorded T/C?
103 % of control
